Attribution: patent US20210388087A1

Tested system: T1, cyno CD137 (cynomolgus monkey, UniProt Q07011 24-186 (human entry), limits assumed)
T1 construct: also called cynomolgus monkey CD137
T1 chain: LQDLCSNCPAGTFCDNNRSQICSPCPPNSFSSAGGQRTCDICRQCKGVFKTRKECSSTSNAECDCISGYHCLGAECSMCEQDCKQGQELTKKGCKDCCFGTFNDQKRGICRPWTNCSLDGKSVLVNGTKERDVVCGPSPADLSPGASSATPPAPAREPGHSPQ
Assay protocol: SPR Biacore T200, IgG captured on protein A, 25 C;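 further: antigens diluted in ACES running buffer at pH 7.4 were flowed over antibodies held on a CM3 chip bearing amine-coupled protein A, with buffer alone serving as blank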
Readout name: koff

As a guide, the following entries are already answered.
1) dBBDu183/L063 (antibody, V domains shown, IgG format; constant regions not specified) VH: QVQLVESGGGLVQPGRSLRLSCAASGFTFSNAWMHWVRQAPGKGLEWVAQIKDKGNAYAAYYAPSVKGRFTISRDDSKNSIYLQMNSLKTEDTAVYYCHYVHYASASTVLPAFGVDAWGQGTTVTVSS VL: DIVMTQSPLSLPVTPGEPASISCRSSQELVHTNRHTYLHWYQQKPGQAPRLLIYKVSNRFPGVPDRFSGSGSGTDFTLKISRVEAEDVGVYYCAQGTQVPFTFGQGTKLEIK : 0.00457 s⁻¹
2) dBBDu189/L112 (antibody, V domains shown, IgG format; constant regions not specified) VH: QVQLVESGGGLVQPGRSLRLSCAASGFTFSNAWMHWVRQAPGKGLEWIAQIKDRSNQYATYYAPSVKGRFTISRDDSKNSIYLQMNSLKTEDTAVYYCHYVHYAQASSLLPSFGVDAWGQGTTVTVSS VL: DIVMTQSPLSLPVTPGEPASISCTSDQELVHMNRHTYLHWYQQKPGQAPRLLIYKVYNRFPGVPDRFSGSGSGTDFTLKISRVEAEDVGVYYCAQGTSVPFTFGQGTKLEIK : 0.0286 s⁻¹

Now let's try a different one.
Prompt line: Check the records and state koff for dBBDu189/L116 (antibody, V domains shown, IgG format; constant regions not specified) VH: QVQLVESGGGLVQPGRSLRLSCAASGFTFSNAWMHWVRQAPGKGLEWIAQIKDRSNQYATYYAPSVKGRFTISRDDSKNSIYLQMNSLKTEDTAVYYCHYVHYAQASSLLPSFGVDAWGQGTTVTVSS VL: DIVMTQSPLSLPVTPGEPASISCSSSQELVHANRQIYLHWYQQKPGQAPRLLIYKVANRFPGVPDRFSGSGSGTDFTLKISRVEAEDVGVYYCAQGTQVPFTFGQGTKLEIK
Response line: 0.00823 s⁻¹
